# Measurement Protocol: ATG_GATA_CIS: Attagene CIS-FACTORIAL HepG2 Assay for human GATA Binding Protein (AID 2282944)
# Condition Notes: HepG2 GATA cis-element reporter, Attagene multiplex mRNA; actives raise or lower the signal
Calls of active or inactive are those of the source. The calls were made as follows: active = hit-call score of the fitted dose curve at least 0.9, where 1 is the maximum; inactive = score below 0.9.
Labels: TRUE = active, FALSE = inactive

{"columns": ["Compound", "Label Class"],
 "data": [
  ["CSc1c(Cl)c(Cl)c(Cl)c(Cl)c1Cl", "FALSE"],
  ["CCC(C)c1cc([N+](=O)[O-])cc([N+](=O)[O-])c1OC(=O)OC(C)C (stereo not given)", "TRUE"],
  ["CC=Cc1ccc(OC)c(OC)c1", "FALSE"],
  ["Cc1cc(C)nc(NS(=O)(=O)c2ccc(N)cc2)n1", "FALSE"],
  ["CS(=O)(=O)OCCCCOS(C)(=O)=O", "FALSE"],
  ["CCCC1O[C@@H]2C[C@H]3[C@@H]4CCC5=CC(=O)C=C[C@]5(C)[C@H]4[C@@H](O)C[C@]3(C)[C@]2(C(=O)CO)O1 (stereo not given in full)", "FALSE"],
  ["O=C1OC[C@H](Cc2cccc(O)c2)[C@H]1Cc1cccc(O)c1", "FALSE"],
  ["OC[C@H]1O[C@@H]2O[C@H]3[C@H](O)[C@@H](O)[C@@H](O[C@H]4[C@H](O)[C@@H](O)[C@@H](O[C@H]5[C@H](O)[C@@H](O)[C@@H](O[C@H]6[C@H](O)[C@@H](O)[C@@H](O[C@H]7[C@H](O)[C@@H](O)[C@@H](O[C@H]8[C@H](O)[C@@H](O)[C@@H](O[C@H]9[C@H](O)[C@@H](O)[C@@H](O[C@H]1[C@H](O)[C@H]2O)O[C@@H]9CO)O[C@@H]8CO)O[C@@H]7CO)O[C@@H]6CO)O[C@@H]5CO)O[C@@H]4CO)O[C@@H]3CO", "FALSE"],
  ["COC(=O)c1ccc([N+](=O)[O-])cc1", "FALSE"],
  ["CCCCCCCCCCCCCCN(CCO)CCO", "FALSE"]
]}

Measured values drawn from PubChem BioAssay (EPA / NIEHS) for this set.
